Source listed as patent US20120172295A1.

target under test: glucagon receptor (UniProt P47871 26-477, limits assumed)
Sequence (P47871 26-477 limits assumed): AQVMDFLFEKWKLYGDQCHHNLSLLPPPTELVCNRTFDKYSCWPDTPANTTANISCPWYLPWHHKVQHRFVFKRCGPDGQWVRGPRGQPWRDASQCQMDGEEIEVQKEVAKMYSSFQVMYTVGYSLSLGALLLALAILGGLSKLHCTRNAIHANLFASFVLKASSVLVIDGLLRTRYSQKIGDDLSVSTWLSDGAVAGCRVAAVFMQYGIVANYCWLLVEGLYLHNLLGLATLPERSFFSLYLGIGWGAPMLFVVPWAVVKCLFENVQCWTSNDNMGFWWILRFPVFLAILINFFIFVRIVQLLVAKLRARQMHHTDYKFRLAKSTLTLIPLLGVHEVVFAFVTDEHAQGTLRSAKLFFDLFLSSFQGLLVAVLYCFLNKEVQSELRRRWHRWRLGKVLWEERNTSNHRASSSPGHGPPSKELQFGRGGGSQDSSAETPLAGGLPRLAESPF
protocol notes: cell-based or functional assay
Non-standard residues stand in square brackets, D forms with d. Groups on a side chain read outwards from the residue. No end group written: not given here. *: point of attachment. Palmitoyl = CCCCCCCCCCCCCCCC(=O)*; Aib = CC(C)(N)C(=O)O
Kindly state EC50 for each of the entries shown.
Answer format: number, then unit.

# binder, EC50
records = [
    ("H[Aib]QGTFTSDK([Trp-Palmitoyl])SKYLD[Aib]RRAQDFVC(PEG 40 kDa)WLMNT-NH2 [Glucagon (1-29a) Aib2 Lys10-Trp-C16 Aib16 Cys24-40 kD]", "0.29 nM"),
]

Task: Provide only the value of recorded EC50 for H[Aib]QGTFTSDK([Trp-Palmitoyl])SKYLD[Aib]RRA[Aib]DFVC(PEG 40 kDa)WLMNT-NH2 [Glucagon (1-29a) Aib2 Lys10-Trp-C16 Aib16 Aib20 Cys24-40 kD]
Output: 2.37 nM
